biological target: HDAC 3 (Homo sapiens); experiment: Fluorescence-based HDAC isoform assay with electrophoretic separation, HDAC 3 (coexpressed with SMRT fragment); format: biochemical; settings: HDAC3 coexpressed with SMRT fragment (residues 395-489), 1 μM FAM-labeled acetylated peptide, 17 h at 25° C.
readout.kind: IC50 (nM)

(I) C=C1CN(Cc2ccc(C(=O)Nc3ccccc3N)cc2)C(=O)c2ccccc21
(II) C=C1CN(Cc2ccc(C(=O)Nc3ccccc3N)cc2)C(CC(=O)O)c2ccccc21 (centres unmarked)
Lower value for measured IC50? Options: I , II Answer = label.
I
(I: 28.7 nM, II: 797 nM)

----------
biological target: HDAC 1 (Homo sapiens, UniProt Q13547); construct: HDACs 1, 2, 3, 6, and 8 were expressed as full length fusion proteins; 6xHis; assay: Fluorescence-based HDAC isoform assay with electrophoretic separation, HDAC 1; settings: isolated 6×His-tagged isoform, 1 μM FAM-labeled acetylated peptide, 17 h at 25° C.
Sequence (Q13547 whole entry, species assumed, the tested form may be a part, canonical isoform): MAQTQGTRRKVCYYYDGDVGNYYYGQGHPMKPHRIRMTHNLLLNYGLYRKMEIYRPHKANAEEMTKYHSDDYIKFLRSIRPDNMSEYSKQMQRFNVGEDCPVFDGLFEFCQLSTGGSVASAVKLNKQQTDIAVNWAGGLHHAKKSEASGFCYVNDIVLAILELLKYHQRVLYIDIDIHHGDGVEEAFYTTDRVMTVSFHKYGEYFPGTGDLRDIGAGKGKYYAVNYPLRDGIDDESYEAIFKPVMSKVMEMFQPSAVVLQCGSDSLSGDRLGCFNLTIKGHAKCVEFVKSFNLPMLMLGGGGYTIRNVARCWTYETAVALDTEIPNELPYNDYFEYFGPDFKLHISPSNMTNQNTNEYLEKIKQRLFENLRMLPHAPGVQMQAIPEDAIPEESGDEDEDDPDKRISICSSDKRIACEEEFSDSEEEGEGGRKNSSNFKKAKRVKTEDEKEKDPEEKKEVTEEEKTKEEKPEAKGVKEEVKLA
readout.kind: pIC50
Just so you know, pIC50 here is -log10 of the concentration in molar units; reply with that number alone.

Entry C=C1CN(Cc2ccc(C(=O)Nc3ccccc3N)cc2)C(=O)c2ccccc21 : reported pIC50 = ?
5.06

----------
biological target: HDAC 3 (Homo sapiens, UniProt O15379); assay: Caliper HDAC inhibitor profiling assay (microfluidic mobility-shift), HDAC 3; assay type: biochemical; conditions: 1 hour at room temperature, read-out: IC50 (μM) HDAC3
Sequence (O15379 whole entry, species assumed, the tested form may be a part, canonical isoform): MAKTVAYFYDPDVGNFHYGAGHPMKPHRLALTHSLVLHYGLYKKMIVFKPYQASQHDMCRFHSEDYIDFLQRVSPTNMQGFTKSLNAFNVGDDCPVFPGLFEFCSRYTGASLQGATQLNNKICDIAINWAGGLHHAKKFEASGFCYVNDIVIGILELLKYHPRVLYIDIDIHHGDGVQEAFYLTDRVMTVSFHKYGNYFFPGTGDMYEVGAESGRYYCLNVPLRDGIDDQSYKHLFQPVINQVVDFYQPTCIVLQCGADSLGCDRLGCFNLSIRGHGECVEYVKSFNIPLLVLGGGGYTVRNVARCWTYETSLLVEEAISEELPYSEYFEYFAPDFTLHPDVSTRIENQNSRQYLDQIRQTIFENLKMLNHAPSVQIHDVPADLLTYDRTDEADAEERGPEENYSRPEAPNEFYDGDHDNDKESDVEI
Sequence (Q9Y618 395-489 partner limits assumed, species assumed): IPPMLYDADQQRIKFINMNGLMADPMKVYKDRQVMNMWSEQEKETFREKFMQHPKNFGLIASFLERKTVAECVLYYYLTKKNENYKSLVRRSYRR
readout.kind: IC50 (µM)

C=C1CN(Cc2ccc(C(=O)Nc3ccccc3N)cc2)C(CC(=O)OC)c2ccccc21 (centres unmarked) [Example 3]
0.98

(A) C=C1CN(Cc2ccc(C(=O)Nc3ccccc3N)cc2)C(=O)c2ccc(C(=O)NCCN)cc21 [Example 14]
(B) C=C1CN(Cc2ccc(C(=O)Nc3ccccc3N)cc2)C(CC(=O)NCCO)c2ccccc21 (centres unmarked) [Example 10]
IC50 comparison. Which is larger, A or B ? Lab note: record the label of whichever item you select.
B
(B: 0.67 µM, A: 0.23 µM)
